src = patent US20200262877A1

Consider the following substances; for each one, report its Activity of Cav2.1 with peptide (percentage of the reference compound).
biological target: Cav2.1 (Homo sapiens); construct: host or cells: HEK293 or CHO; test: cell-based; settings: peptide at 20 μM; 100% = no change, <100% = inhibition
Sequence (P54289 25-1103): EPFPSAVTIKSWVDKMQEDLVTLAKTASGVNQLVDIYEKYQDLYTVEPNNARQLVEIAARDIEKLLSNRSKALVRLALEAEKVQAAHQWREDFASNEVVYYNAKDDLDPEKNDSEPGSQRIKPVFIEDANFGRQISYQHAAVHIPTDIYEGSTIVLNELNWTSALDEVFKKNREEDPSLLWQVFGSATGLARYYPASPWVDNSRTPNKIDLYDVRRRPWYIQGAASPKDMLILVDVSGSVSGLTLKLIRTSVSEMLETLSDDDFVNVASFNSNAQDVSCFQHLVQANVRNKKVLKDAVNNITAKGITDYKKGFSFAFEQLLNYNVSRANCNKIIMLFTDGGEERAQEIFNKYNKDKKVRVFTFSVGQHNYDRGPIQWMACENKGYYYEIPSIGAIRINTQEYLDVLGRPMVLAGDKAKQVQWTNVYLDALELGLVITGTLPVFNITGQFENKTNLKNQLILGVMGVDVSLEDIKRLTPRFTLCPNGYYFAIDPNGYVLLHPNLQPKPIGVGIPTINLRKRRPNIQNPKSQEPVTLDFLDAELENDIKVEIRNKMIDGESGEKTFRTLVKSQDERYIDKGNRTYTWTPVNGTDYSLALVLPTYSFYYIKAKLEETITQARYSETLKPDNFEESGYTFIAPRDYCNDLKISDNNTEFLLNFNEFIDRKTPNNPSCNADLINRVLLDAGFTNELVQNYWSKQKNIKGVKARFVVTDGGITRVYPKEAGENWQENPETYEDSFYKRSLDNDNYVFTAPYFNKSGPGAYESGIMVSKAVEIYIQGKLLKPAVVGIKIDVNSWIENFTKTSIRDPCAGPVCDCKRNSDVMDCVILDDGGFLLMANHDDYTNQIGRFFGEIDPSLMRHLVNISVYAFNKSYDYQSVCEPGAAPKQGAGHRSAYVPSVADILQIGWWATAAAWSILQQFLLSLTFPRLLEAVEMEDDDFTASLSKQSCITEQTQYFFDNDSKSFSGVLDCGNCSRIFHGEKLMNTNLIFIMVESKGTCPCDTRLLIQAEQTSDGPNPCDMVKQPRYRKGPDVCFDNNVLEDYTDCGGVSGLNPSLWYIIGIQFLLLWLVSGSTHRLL
Sequence (O00555 whole entry): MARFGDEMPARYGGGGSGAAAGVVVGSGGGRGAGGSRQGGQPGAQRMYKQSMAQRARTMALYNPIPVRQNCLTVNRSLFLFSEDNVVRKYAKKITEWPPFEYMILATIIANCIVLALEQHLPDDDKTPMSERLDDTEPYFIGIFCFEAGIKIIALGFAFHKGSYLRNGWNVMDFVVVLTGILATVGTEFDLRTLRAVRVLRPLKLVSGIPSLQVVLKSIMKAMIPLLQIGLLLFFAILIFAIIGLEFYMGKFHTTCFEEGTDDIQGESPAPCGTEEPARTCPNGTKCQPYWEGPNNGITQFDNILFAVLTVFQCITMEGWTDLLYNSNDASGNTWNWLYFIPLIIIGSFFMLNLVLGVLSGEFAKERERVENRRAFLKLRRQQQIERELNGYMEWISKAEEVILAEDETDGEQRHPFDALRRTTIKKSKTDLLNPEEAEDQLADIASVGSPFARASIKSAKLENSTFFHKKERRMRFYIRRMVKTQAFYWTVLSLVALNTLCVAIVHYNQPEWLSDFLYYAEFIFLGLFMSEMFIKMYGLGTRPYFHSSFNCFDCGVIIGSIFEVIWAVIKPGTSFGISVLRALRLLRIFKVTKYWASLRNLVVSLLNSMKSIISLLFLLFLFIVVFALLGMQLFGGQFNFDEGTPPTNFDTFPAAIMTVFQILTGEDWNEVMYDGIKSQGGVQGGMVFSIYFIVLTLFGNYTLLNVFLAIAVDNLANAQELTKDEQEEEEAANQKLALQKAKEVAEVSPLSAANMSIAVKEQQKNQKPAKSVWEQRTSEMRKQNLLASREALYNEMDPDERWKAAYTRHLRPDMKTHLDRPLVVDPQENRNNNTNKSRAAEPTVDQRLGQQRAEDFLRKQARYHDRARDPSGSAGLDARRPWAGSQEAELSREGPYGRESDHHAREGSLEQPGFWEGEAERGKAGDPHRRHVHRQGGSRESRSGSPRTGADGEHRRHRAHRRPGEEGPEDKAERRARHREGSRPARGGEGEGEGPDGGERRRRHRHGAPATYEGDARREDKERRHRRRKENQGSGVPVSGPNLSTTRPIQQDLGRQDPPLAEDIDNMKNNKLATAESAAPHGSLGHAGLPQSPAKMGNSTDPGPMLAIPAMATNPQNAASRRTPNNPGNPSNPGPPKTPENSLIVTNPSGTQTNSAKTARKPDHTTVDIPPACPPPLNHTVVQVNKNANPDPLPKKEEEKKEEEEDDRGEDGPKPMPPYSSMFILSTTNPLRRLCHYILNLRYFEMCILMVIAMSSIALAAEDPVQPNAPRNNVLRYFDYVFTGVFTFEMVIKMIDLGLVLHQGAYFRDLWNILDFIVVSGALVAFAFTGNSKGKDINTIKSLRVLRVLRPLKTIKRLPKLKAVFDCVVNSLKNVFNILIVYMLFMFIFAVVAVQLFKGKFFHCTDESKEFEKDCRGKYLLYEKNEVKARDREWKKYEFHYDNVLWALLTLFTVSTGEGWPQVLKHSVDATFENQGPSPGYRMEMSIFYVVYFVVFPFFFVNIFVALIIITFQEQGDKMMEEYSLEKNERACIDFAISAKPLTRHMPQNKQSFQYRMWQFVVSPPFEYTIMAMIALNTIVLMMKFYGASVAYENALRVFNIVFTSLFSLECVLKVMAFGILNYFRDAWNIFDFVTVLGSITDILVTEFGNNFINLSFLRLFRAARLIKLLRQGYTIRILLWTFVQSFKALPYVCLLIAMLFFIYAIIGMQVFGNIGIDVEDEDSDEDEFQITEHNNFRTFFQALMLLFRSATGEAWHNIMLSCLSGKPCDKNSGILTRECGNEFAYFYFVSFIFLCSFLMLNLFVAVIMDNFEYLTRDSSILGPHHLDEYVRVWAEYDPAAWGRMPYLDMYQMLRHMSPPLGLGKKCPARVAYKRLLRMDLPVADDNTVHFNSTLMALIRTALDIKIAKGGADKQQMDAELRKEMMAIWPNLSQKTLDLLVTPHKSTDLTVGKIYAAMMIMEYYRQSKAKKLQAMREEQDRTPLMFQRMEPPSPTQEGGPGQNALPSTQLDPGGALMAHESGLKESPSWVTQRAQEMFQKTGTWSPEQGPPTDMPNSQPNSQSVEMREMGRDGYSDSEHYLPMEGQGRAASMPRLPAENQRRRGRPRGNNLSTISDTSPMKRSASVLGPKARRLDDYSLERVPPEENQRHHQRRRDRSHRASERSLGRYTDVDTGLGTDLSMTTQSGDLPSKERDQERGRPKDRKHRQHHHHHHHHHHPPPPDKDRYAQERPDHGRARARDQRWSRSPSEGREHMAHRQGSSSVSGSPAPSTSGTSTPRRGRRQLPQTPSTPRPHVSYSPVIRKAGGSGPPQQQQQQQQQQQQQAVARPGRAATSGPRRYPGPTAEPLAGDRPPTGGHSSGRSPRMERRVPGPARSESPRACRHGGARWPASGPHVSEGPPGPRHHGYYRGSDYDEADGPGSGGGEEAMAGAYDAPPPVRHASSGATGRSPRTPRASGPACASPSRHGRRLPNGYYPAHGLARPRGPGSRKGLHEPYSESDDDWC
Express the result in % but write the number alone.

Need Activity of Cav2.1 with peptide (percentage of the reference compound) of 6 (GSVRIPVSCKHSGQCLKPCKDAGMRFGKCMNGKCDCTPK) [compound 6] , thanks.
111

I have this substance here, 17 (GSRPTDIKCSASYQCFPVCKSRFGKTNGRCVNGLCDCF) [compound 17] , and I need its recorded Activity of Cav2.1 with peptide (percentage of the reference compound).
90

Form field: reported Activity of Cav2.1 with peptide (percentage of the reference compound) of 30 (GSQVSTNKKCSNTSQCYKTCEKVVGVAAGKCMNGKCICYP) [compound 30]
103

Given the entry 5 (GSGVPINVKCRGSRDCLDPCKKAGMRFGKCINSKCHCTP) [compound 5] , report its measured Activity of Cav2.1 with peptide (percentage of the reference compound).
121

// lookup Activity of Cav2.1 with peptide (percentage of the reference compound) for 27 (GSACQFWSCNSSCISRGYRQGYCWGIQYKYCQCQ) [compound 27]
103

###

molecular target: NR2A (Homo sapiens); construct: host or cells: HEK293 or CHO; assay: Ion channel panel (IonWorks Barracuda): NR2A; type: cell-based; conditions: peptide at 20 μM; 100% = no change, <100% = inhibition
Sequence (Q12879 23-1464, other chains not shown): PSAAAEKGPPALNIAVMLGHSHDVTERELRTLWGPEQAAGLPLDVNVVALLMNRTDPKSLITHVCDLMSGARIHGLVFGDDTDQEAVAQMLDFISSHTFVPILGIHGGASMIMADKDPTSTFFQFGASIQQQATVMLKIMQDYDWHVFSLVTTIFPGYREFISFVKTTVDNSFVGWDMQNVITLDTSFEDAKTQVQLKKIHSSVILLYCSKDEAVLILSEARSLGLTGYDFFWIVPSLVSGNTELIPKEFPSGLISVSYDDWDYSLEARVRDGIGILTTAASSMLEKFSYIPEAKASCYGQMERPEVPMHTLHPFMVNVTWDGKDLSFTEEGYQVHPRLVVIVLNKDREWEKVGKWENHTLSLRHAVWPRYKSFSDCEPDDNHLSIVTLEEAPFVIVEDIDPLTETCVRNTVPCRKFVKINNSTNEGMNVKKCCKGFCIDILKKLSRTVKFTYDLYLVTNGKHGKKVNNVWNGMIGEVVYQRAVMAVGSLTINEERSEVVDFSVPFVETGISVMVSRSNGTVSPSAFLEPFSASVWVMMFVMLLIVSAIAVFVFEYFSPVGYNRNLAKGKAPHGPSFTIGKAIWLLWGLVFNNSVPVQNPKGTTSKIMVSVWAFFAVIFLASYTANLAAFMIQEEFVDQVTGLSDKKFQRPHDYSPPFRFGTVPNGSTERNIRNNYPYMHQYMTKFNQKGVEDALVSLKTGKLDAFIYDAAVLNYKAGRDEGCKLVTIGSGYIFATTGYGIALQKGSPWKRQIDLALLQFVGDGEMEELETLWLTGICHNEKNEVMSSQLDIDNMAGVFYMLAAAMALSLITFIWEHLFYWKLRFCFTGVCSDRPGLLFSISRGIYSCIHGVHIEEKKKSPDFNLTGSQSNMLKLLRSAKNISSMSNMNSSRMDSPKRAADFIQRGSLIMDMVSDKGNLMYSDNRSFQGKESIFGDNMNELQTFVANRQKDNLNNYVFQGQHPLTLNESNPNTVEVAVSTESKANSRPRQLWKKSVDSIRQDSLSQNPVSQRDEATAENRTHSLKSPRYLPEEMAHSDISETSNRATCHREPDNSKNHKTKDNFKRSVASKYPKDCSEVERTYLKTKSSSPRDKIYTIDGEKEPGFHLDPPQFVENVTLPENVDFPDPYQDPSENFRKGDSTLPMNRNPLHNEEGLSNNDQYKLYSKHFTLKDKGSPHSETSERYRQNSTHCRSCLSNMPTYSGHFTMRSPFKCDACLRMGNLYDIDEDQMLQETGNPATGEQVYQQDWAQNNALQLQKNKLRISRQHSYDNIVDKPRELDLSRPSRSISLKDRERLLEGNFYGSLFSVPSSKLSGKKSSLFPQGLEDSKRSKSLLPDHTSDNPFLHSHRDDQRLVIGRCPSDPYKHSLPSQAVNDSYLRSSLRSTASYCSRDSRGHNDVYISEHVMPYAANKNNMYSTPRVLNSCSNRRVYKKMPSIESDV
What Activity of NR2A with peptide (percentage of the reference compound) was measured for each of the following?
Give the quantity in %, number only.

Fill blank: measured Activity of NR2A with peptide (percentage of the reference compound) of the substance 9 (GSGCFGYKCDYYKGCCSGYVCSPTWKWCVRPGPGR) [compound 9] is ____.
87

What value of Activity of NR2A with peptide (percentage of the reference compound) has been recorded for this entry: 36 (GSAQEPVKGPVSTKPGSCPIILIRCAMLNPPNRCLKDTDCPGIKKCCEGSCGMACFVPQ) [compound 36]
103

Quick one: Activity of NR2A with peptide (percentage of the reference compound) of 29 (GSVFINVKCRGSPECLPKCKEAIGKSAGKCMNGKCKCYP) [compound 29] ?
87

Request the reported Activity of NR2A with peptide (percentage of the reference compound) associated with 17 (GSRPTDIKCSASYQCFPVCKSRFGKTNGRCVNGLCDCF) [compound 17]
96

Which measured Activity of NR2A with peptide (percentage of the reference compound) value corresponds to 19 (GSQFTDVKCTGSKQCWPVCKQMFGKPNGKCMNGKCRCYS) [compound 19] ?
99

Would you kindly share the measured Activity of NR2A with peptide (percentage of the reference compound) for 6 (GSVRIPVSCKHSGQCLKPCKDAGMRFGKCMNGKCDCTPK) [compound 6] ?
88

Endpoint output: Activity of NR2A with peptide (percentage of the reference compound) of 15 (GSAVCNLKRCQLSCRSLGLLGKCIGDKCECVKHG) [compound 15] . Value?
76

Please look up its Activity of NR2A with peptide (percentage of the reference compound): 38 (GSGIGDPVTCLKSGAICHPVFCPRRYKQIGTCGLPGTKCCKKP) [compound 38]
90

Tell me the measured Activity of NR2A with peptide (percentage of the reference compound) of 22 (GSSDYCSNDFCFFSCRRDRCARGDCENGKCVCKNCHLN) [compound 22] , please.
129
